Cited source: PubChem BioAssay

# assay-text: growth inhibitors of H69AR lung tumor, primary screen, human, duplicate replicates (AID 580);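 further: 100% = mean luminescence of untreated wells and 0% = no signal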
# test-parameters: H69AR lung tumor cells viability, ATP luminescence, 72 h; at 10 µM; hits give low values
# viability values compiled below

>  <compound>
Cc1cc(NC(=O)c2ccc(Cl)cc2)no1

>  <viability (%)>
87.5

$$$$
>  <compound>
O=C(Nc1nc(-c2ccc(S(=O)(=O)N3CCCC3)cc2)cs1)C1COc2ccccc2O1 (stereo not drawn)

>  <viability (%)>
90.3

$$$$
>  <compound>
COC(=O)c1cc(=O)n2c(-c3ccc(OC)cc3)csc2n1

>  <viability (%)>
92.6

$$$$

* * *

# assay-text: SK-BR-3 cell growth inhibitors, pilot screen, 24 h, human (AID 572);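 further: compound exposure lasted between 18 and 24 h rather than exactly 24 h; 100% = carrier-treated control wells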
# test-parameters: SK-BR-3 viability, CellTiter-Glo luminescence, at 10 µM, hits give low values
viability values by entry
property: viability (%)

>  <molecule>
CCOC(=O)N(C)c1ccc(C(O)(C(F)(F)F)C(F)(F)F)cc1

>  <value-units>
%

>  <meas-value>
92

$$$$
>  <molecule>
CCC(C)(C)NC(=O)CN(C(=O)c1snc(C(N)=O)c1N)c1ccc2c(c1)OCO2

>  <value-units>
%

>  <meas-value>
104

$$$$
>  <molecule>
CC(NC(=O)NC12CC3CC(CC(C3)C1)C2)C1CCCO1 (stereo not given)

>  <value-units>
%

>  <meas-value>
80

$$$$
>  <molecule>
CC1c2nc3ccccc3n2C(CC(=O)NCc2ccccn2)C(=O)N1Cc1ccccc1 (stereo not given)

>  <value-units>
%

>  <meas-value>
110

$$$$
>  <molecule>
Nc1ccc(S(=O)(=O)c2ccc(N)cc2)cc1

>  <value-units>
%

>  <meas-value>
95

$$$$
>  <molecule>
CCCCCc1c(C)nc(SCC(=O)O)[nH]c1=O

>  <value-units>
%

>  <meas-value>
108

$$$$
>  <molecule>
CCC(C)OC(=O)c1[nH]c2c(c1C)C(=O)CC(c1ccc(N(C)C)cc1)C2 (stereo not given)

>  <value-units>
%

>  <meas-value>
88.5

$$$$
>  <molecule>
COC(=O)c1ccccc1S(=O)(=O)N(Cc1cc2cc3c(cc2[nH]c1=O)OCO3)C1CCCCC1

>  <value-units>
%

>  <meas-value>
83

$$$$
>  <molecule>
O=c1c2[nH]c3cccc(Cl)c3c2ncn1CCN1CCCCC1

>  <value-units>
%

>  <meas-value>
103

$$$$
>  <molecule>
Cn1c(C(=O)OC(C(=O)NC2CCCC2)c2cccnc2)cc2sccc21 (stereo not given)

>  <value-units>
%

>  <meas-value>
74

$$$$

* * *

# assay-text: HUVEC growth inhibition – cell-based, human, primary screen (AID 575);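 further: 100% = median of untreated cell wells with 0.1% DMSO on each plate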
# test-parameters: HUVEC proliferation, CellTiter-Glo luminescence, 72 h; at 10 µM; hits give low values
viability strictly less than 60% = true. Otherwise false.

>  <compound>
C(#Cc1ccccc1)Cn1nnc2ccccc21

>  <label-class>
false

$$$$
>  <compound>
Cc1ccc(C)c(C(=O)CC2(O)C(=O)Nc3ccccc32)c1 (stereo not given)

>  <label-class>
false

$$$$
>  <compound>
CCOc1ccccc1NC(=O)CCSc1nc2n[nH]c(C)c2c(=N)n1-c1ccccc1Cl

>  <label-class>
true

$$$$
>  <compound>
CCCCCc1c(C)nc(SCC(=O)O)[nH]c1=O

>  <label-class>
false

$$$$
>  <compound>
Cc1c(Cl)cccc1Nc1ccccc1C(=O)O

>  <label-class>
true

$$$$

* * *

# assay-text: growth suppression of yeast trafficking mutant, preliminary HTS, modulators of trafficking downstream of Golgi apparatus project, 1536-format plate, OD 615 nm (AID 637)
# test-parameters: yeast transport mutant growth, absorbance 615 nm, 18 h
Active and inactive are the calls of the source. No stated cut-off is given here; in the data, active means inhibition above about 30%; inactive means the rest.
Outcomes: active, inactive

>  <compound>
COc1ccccc1-c1coc2c(CN3CCN(CCO)CC3)c(O)ccc2c1=O

>  <label-class>
inactive

$$$$
>  <compound>
CC(C)NC(=O)Nc1cccs1

>  <label-class>
inactive

$$$$
>  <compound>
CC(=O)Nc1ccc(-c2cc3ccccc3o2)cc1

>  <label-class>
inactive

$$$$
>  <compound>
CC(C)[C@H](NC(=O)OC(C)(C)C)c1nnc(S(=O)(=O)Cc2c(F)cccc2Cl)o1

>  <label-class>
inactive

$$$$
>  <compound>
CC12COC3(C(=O)Nc4ccc(Cl)cn4)CC1CCC32C (stereo unspecified)

>  <label-class>
inactive

$$$$
>  <compound>
CCOC(=O)c1nnc2ccnn2c1N

>  <label-class>
inactive

$$$$
>  <compound>
C=CCn1c(COc2ccc(Cl)cc2)nnc1SCC(=O)N1CC(=O)Nc2ccccc21

>  <label-class>
inactive

$$$$
>  <compound>
c1ccc(-c2noc(-c3cccnc3)n2)nc1

>  <label-class>
inactive

$$$$
>  <compound>
CCCc1ccc(Oc2cn[nH]c2-c2ccc(O)c(C)c2O)cc1

>  <label-class>
active

$$$$
>  <compound>
CCC(C(=O)NC(C)CCc1ccco1)n1nc(C)n2c(cc3occc32)c1=O (stereo unspecified)

>  <label-class>
inactive

$$$$
>  <compound>
Cc1ccc(S(=O)(=O)N2CCN(C(=O)N3CCOCC3)C2C)cc1 (stereo unspecified)

>  <label-class>
inactive

$$$$
>  <compound>
Cn1c(=O)cc(OCCCC(=O)N2CCCCC2)c2ccccc21

>  <label-class>
inactive

$$$$
>  <compound>
Cc1ccc2nc(NC(=O)C3CCCN(S(=O)(=O)c4cccc5nonc45)C3)sc2c1 (stereo unspecified)

>  <label-class>
inactive

$$$$
>  <compound>
c1ccc2c(c1)nc(-c1ccncc1)n1nnnc21

>  <label-class>
inactive

$$$$
>  <compound>
O=C(Nc1ccccc1-c1nc2ccccc2o1)c1ccc2c(c1)OCCO2

>  <label-class>
inactive

$$$$
>  <compound>
S=C(c1ccc(N2CCOCC2)cc1)N1CCCCC1

>  <label-class>
inactive

$$$$
>  <compound>
O=C(CSc1nc2ccccc2c(=O)n1Cc1ccco1)NCc1ccccc1

>  <label-class>
inactive

$$$$
>  <compound>
Cc1ccc(S(=O)(=O)N2CCN(C(=O)CSc3nc4ccccc4c(=O)[nH]3)CC2)c(C)c1

>  <label-class>
inactive

$$$$
>  <compound>
CCOc1ccc(C(=O)Nc2cc(C)on2)cc1OCC

>  <label-class>
inactive

$$$$
>  <compound>
[O-][n+]1onc2c1CCc1nnc(-c3ccccc3)cc1-2

>  <label-class>
inactive

$$$$
>  <compound>
COc1ccc(N(CC(=O)Nc2ccc(F)c(Cl)c2)S(=O)(=O)c2c(C)noc2C)cc1

>  <label-class>
inactive

$$$$

* * *

# assay-text: reversal of MRP1-mediated doxorubicin resistance, pilot screen, H69AR cells, doxorubicin co-treatment (AID 601)
# test-parameters: H69AR cells + 2 uM doxorubicin, CellTiter-Glo, 72 h; at 10 µM; hits give high values
Activity calls are given as the source filed them.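 How the source made its calls: active means viability loss from added drug above about 55%, and viability with drug at most 40%, in both replicates (limit read from the data, passing the limit was not always enough); inconclusive means both conditions met in only one replicate; inactive means neither replicate meets both conditions.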

>  <molecule>
COc1ccccc1-c1coc2c(CN3CCN(CCO)CC3)c(O)ccc2c1=O

>  <differential viability (reversal)>
18.9% (inactive)

$$$$
>  <molecule>
COc1ccccc1C(=O)N1CCCC(c2nc(-c3cc(OC)c(OC)c(OC)c3)no2)C1 (stereo not given)

>  <differential viability (reversal)>
23.2% (inactive)

$$$$
>  <molecule>
O=C(CSc1nnc(-c2ccccc2)o1)NC1CCCCC1

>  <differential viability (reversal)>
14.7% (inactive)

$$$$
>  <molecule>
O=C(NC1=NCCS1)c1nc(-c2ccccc2)n(-c2ccccc2)n1

>  <differential viability (reversal)>
8.75% (inactive)

$$$$
>  <molecule>
Cc1nnc(N(C)C(=O)Cc2ccc3c(c2)OCO3)s1

>  <differential viability (reversal)>
5.27% (inactive)

$$$$
>  <molecule>
Cc1ccccc1Nc1cc2ccccc2c(=O)[nH]1

>  <differential viability (reversal)>
2.71% (inactive)

$$$$
>  <molecule>
COc1ccc(C2NC(c3ccc(OC)c(OC)c3OC)C(C)C(=O)C2C)c(OC)c1OC (stereo not given)

>  <differential viability (reversal)>
7.84% (inactive)

$$$$
>  <molecule>
CCCc1nc2ccccc2c(=O)n1NC(=O)c1c(O)c2cccc3c2n(c1=O)CCC3

>  <differential viability (reversal)>
-6.06% (inactive)

$$$$
>  <molecule>
CCCCSc1nnc([C@H](C)NC(=O)OC(C)(C)C)o1

>  <differential viability (reversal)>
-10.7% (inactive)

$$$$
>  <molecule>
CCc1nnc(-n2nc(C)cc2-c2ccccc2)n1N

>  <differential viability (reversal)>
2.83% (inactive)

$$$$
>  <molecule>
O=C(c1ccc(-c2ccccc2)cc1)N1CCC(C(=O)N2CCCC2)CC1

>  <differential viability (reversal)>
12.4% (inactive)

$$$$
>  <molecule>
Cn1c(Cl)cnc1C1CC(=O)c2cc(Cl)ccc2O1 (stereo not given)

>  <differential viability (reversal)>
0.045% (inactive)

$$$$
>  <molecule>
COCCN(C(=O)CNC(=O)c1ccco1)C(C(=O)NC1CCCCC1)c1cccc(OC)c1 (stereo not given)

>  <differential viability (reversal)>
12.6% (inactive)

$$$$
>  <molecule>
COc1cccc(N(C(=O)c2ccco2)C(C(=O)NC2CCCC2)c2ccc(N(C)C)cc2)c1 (stereo not given)

>  <differential viability (reversal)>
14.6% (inactive)

$$$$
>  <molecule>
CC(=O)c1cccc(NS(=O)(=O)c2ccc3c(c2)oc(=O)n3C)c1

>  <differential viability (reversal)>
8.94% (inactive)

$$$$
>  <molecule>
O=C(COC(=O)C12CC3CC(CC(C3)C1)C2)NCc1ccco1

>  <differential viability (reversal)>
-21.4% (inactive)

$$$$
>  <molecule>
O=C(c1ccc2c(c1)OCO2)N1CCNc2ccccc2C1

>  <differential viability (reversal)>
11.9% (inactive)

$$$$
>  <molecule>
CCOC(=O)c1cc2sc(C)cc2n1CC(=O)NCc1ccc(F)cc1

>  <differential viability (reversal)>
17.1% (inactive)

$$$$
>  <molecule>
CC(=O)NC1(C(F)(F)F)NC(=O)N(CC(C)C)C1=O (stereo not given)

>  <differential viability (reversal)>
18.8% (inactive)

$$$$
>  <molecule>
COc1ccc(C(=O)NC(=O)CSc2nnc(-c3ccco3)n2-c2ccccc2)cc1

>  <differential viability (reversal)>
16.3% (inactive)

$$$$
>  <molecule>
O=C(N1CCN(c2ccccc2F)CC1)C12CC3CC(CC(C3)C1)C2

>  <differential viability (reversal)>
-8.84% (inactive)

$$$$
>  <molecule>
Cc1nnc(Nc2ccccn2)c2ccccc12

>  <differential viability (reversal)>
-2.5% (inactive)

$$$$
>  <molecule>
CC(Sc1nnc(-c2cc3ccccc3o2)n1-c1ccccc1)C(=O)O (stereo not given)

>  <differential viability (reversal)>
1.61% (inactive)

$$$$
>  <molecule>
CC(C)(C)n1nnnc1C(c1ccccc1)N1CCc2ccccc2C1 (stereo not given)

>  <differential viability (reversal)>
5.93% (inactive)

$$$$
>  <molecule>
COc1ccc2nc(S(=O)Cc3ncc(C)c(OC)c3C)[nH]c2c1 (stereo not given)

>  <differential viability (reversal)>
-13.3% (inactive)

$$$$
>  <molecule>
O=C(CN(c1ccc(F)cc1)S(=O)(=O)c1ccc2c(c1)OCCO2)NCC1CCCO1 (stereo not given)

>  <differential viability (reversal)>
13.4% (inactive)

$$$$
>  <molecule>
O=C(NC1CCCCC1)C1CCCN1C(=O)NCc1ccccc1 (stereo not given)

>  <differential viability (reversal)>
-1.87% (inactive)

$$$$
>  <molecule>
CCC(=O)Oc1ccc(C/C(=N\O)c2ccc(O)cc2O)o1

>  <differential viability (reversal)>
-33% (inactive)

$$$$
>  <molecule>
CCn1cc(C(=O)O)c(=O)c2ccc(C)nc21

>  <differential viability (reversal)>
0.53% (inactive)

$$$$
>  <molecule>
COc1cccc(NS(=O)(=O)c2ccc3[nH]cc(C(=O)NC4CC4)c(=O)c3c2)c1

>  <differential viability (reversal)>
-15.6% (inactive)

$$$$
>  <molecule>
CC1(C)NC(=O)N(CC(O)COc2ccc(-c3ccccc3)cc2)C1=O (stereo not given)

>  <differential viability (reversal)>
3.21% (inactive)

$$$$
>  <molecule>
Cc1c(NC(=O)c2ccc(=O)oc2)c(=O)n(-c2ccccc2)n1C

>  <differential viability (reversal)>
-18.7% (inactive)

$$$$
>  <molecule>
CC1(C)CC(=O)C=C(NC2CCS(=O)(=O)C2)C1 (stereo not given)

>  <differential viability (reversal)>
-0.825% (inactive)

$$$$
>  <molecule>
CCOC(=O)c1ccc(NC(=O)CSc2nnc(COc3ccccc3)n2C)cc1

>  <differential viability (reversal)>
8.77% (inactive)

$$$$
>  <molecule>
CC(=O)n1nc(-c2ccco2)nc1SCc1ccccc1

>  <differential viability (reversal)>
14.9% (inactive)

$$$$
>  <molecule>
COc1ccc(CNCC(=O)Nc2cc(C)nn2-c2nc(C)cc(C)n2)cc1OC

>  <differential viability (reversal)>
-58.3% (inactive)

$$$$
>  <molecule>
O=C(CN1CCN(c2ccccn2)CC1)N1c2ccccc2CCc2ccccc21

>  <differential viability (reversal)>
-0.175% (inactive)

$$$$
>  <molecule>
CCOC(=O)c1[nH]c(C)c(C(=O)Nc2cc(OC)ccc2OC)c1C

>  <differential viability (reversal)>
-45.8% (inactive)

$$$$
>  <molecule>
O=S(=O)(NCc1ccc(Cl)cc1)c1cnc[nH]1

>  <differential viability (reversal)>
23.5% (inactive)

$$$$
>  <molecule>
O=C(c1csc2ccccc12)n1cccn1

>  <differential viability (reversal)>
6.73% (inactive)

$$$$
